Data origin: patent US20240327463A1

- System: MRSA 1003
- Type: cell-based, Staphylococcus aureus
Bridge positions count the residues as written; N and C are the ends. Square brackets hold non-standard residues; d marks the D form. Peptide text beside a SMILES is read from it. ξ: configuration not given here. dNMeF = CN[C@H](Cc1ccccc1)C(=O)O; Ile(3ξ) = CCC(C)[C@H](N)C(=O)O
Quick reference: MIC of the listed items.
Entry rule: numbers only, all in µg/mL.

In the examples that follow, each entry is paired with its recorded MIC.
compound	result-units	readout-number
CC[C@@H](C)[C@@H](NC(=O)[C@@H](CCC(N)=O)NC(=O)[C@H](CO)NC(=O)[C@@H](NC(=O)[C@@H](Cc1ccccc1)NC)[C@@H](C)CC)C(=O)N[C@H](C(=O)N[C@@H](CO)C(=O)N[C@H]1C(=O)N[C@@H](CCCNC(=N)N)C(=O)N[C@@H](CC(C)C)C(=O)N[C@@H]([C@@H](C)CC)C(=O)O[C@H]1C)[C@@H](C)CC [Compound 27, Arg9-Leu10-teixobactin] (H-[dNMeF]IS[dQ][dI]IS[dT]RLI; ester 8-C)	µg/mL	0.25
CC[C@@H](C)[C@@H](NC(=O)[C@@H](CCCNC(=N)N)NC(=O)[C@H](CO)NC(=O)[C@@H](NC(=O)[C@@H](Cc1ccccc1)NC)[C@@H](C)CC)C(=O)N[C@H](C(=O)N[C@@H](CO)C(=O)N[C@H]1C(=O)N[C@@H](CCCNC(=N)N)C(=O)N[C@@H](CC(C)C)C(=O)N[C@@H]([C@@H](C)CC)C(=O)O[C@H]1C)[C@@H](C)CC [Compound 30, D-Arg4-Arg9-Leu10-teixobactin] (H-[dNMeF]IS[dR][dI]IS[dT]RLI; ester 8-C)	µg/mL	0.5
CC[C@@H](C)[C@@H](NC(=O)[C@@H](CCCNC(=N)N)NC(=O)[C@H](CO)NC(=O)[C@@H](NC(=O)[C@@H](Cc1ccccc1)NC)[C@@H](C)CC)C(=O)N[C@H](C(=O)N[C@@H](CO)C(=O)N[C@H]1C(=O)N[C@@H](C)C(=O)N[C@@H](CC(C)C)C(=O)N[C@@H]([C@@H](C)CC)C(=O)O[C@H]1C)[C@@H](C)CC	µg/mL	0.5

Requested read-out: MIC. Entry: CCC(C)[C@@H]1NC(=O)[C@H](C)NC(=O)[C@H](NC(=O)[C@H](CO)NC(=O)[C@@H](NC(=O)[C@H](NC(=O)[C@@H](CCC(N)=O)NC(=O)[C@H](CCCNC(=N)N)NC(=O)[C@@H](NC(=O)[C@@H](Cc2ccccc2)NC)[C@@H](C)CC)[C@H](C)CC)[C@@H](C)CC)[C@H](C)OC(=O)[C@H]([C@@H](C)CC)NC1=O (some centres unmarked) [Compound 32, Arg3-Ile10-teixobactin] (H-[dNMeF]IR[dQ][dI]IS[dT]A[Ile(3ξ)]I; ester 8-C)
0.125

What measured MIC goes with CC[C@@H](C)[C@@H](NC(=O)[C@@H](CCC(N)=O)NC(=O)[C@H](CCCNC(=N)N)NC(=O)[C@@H](NC(=O)[C@@H](Cc1ccccc1)NC)[C@@H](C)CC)C(=O)N[C@H](C(=O)N[C@@H](CO)C(=O)N[C@H]1C(=O)N[C@@H](CCCNC(=N)N)C(=O)N[C@@H](CC(C)C)C(=O)N[C@@H]([C@@H](C)CC)C(=O)O[C@H]1C)[C@@H](C)CC [Compound 29, Arg3-Arg9-Leu10-teixobactin] (H-[dNMeF]IR[dQ][dI]IS[dT]RLI; ester 8-C) ?
2
